This collection of values is drawn from patent US20040018253A1.

Molecular target: CYP2D6 (Homo sapiens)
Sequence (P10635 whole entry): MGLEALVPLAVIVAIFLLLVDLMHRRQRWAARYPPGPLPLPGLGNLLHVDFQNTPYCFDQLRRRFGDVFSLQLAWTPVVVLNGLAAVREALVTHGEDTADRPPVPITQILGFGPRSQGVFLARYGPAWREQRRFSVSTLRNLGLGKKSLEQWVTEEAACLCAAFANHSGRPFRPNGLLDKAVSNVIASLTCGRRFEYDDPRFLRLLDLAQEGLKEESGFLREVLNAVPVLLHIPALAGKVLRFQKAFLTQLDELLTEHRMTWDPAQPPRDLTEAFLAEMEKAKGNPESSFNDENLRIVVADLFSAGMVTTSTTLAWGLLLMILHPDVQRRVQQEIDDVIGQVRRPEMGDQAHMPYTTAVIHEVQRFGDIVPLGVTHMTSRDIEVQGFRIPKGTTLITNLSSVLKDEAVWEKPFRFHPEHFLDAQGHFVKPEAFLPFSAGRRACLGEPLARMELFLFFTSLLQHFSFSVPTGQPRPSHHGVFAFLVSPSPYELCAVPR
Assay: CYP2D6 catalyzed metabolism, Michaelis-Menten KM
Conditions: CYP2D6 substrate
Property Name: Km

(Q) Kindly state the measured Km obtained for `O=C1CCC(=O)N1C[C@H]1CC[C@H]2CN(c3ncccn3)CCN2C1` with CYP2D6 (Homo sapiens).
(A) ~1 µM

====

Target: CYP2D6 (Homo sapiens)
Test: CYP2D6 catalyzed metabolism, Michaelis-Menten KM
Details: human
Property Name: Km

(Q) Report Km for `C[C@@H]([C@@H](O)c1ccc(O)cc1)N1CCC(O)(c2ccccc2)CC1` please.
(A) 3 to 4 µM

====

Assay: Human pharmacokinetics of CYP2D6 substrates (half-life, oral bioavailability, hepatic extraction)
Conditions: in vivo
Property Name: half-life

(Q) Form field: reported half-life of `C[C@@H]([C@@H](O)c1ccc(O)cc1)N1CCC(O)(c2ccccc2)CC1`
(A) 3 to 4 h
